From: ChEMBL document CHEMBL4049422

# method description: Solubility of the compound at pH 1.2 buffer solution after 18 hrs by HPLC analysis
# Type: physicochemical

mol smiles: Cc1n[nH]c2cc(OCCNC[C@H](O)c3cccc(NS(C)(=O)=O)c3)ccc12
output unit: µM
solubility at 18 h: 285

mol smiles: CC(C)c1n[nH]c2cc(OCCNC[C@H](O)c3cccc(NS(C)(=O)=O)c3)ccc12
output unit: µM
solubility at 18 h: 295

mol smiles: Cc1n[nH]c2cc(OCCNC[C@H](O)c3cccc(NS(=O)(=O)c4ccccc4)c3)ccc12
output unit: µM
solubility at 18 h: 300

mol smiles: Cc1n[nH]c2cc(OCCNC[C@H](O)c3cccc(NS(=O)(=O)C4CCC4)c3)ccc12
output unit: µM
solubility at 18 h: 299

====

# method description: Solubility of the compound at pH 6.8 buffer solution after 18 hrs by HPLC analysis
# Assay type: physicochemical
observable: solubility at 18 h

mol smiles: Cc1n[nH]c2cc(OCCNC[C@H](O)c3cccc(NS(=O)(=O)c4ccccc4)c3)ccc12
observable: solubility at 18 h
result: 229 µM
//
mol smiles: Cc1n[nH]c2cc(OCCNC[C@H](O)c3cccc(NS(C)(=O)=O)c3)ccc12
observable: solubility at 18 h
result: 273 µM
//
mol smiles: Cc1n[nH]c2cc(OCCNC[C@H](O)c3cccc(NS(=O)(=O)C4CCC4)c3)ccc12
observable: solubility at 18 h
result: 278 µM
//
mol smiles: CC(C)c1n[nH]c2cc(OCCNC[C@H](O)c3cccc(NS(C)(=O)=O)c3)ccc12
observable: solubility at 18 h
result: 267 µM

====

# tested target: Beta-3 adrenergic receptor (Homo sapiens, UniProt P13945)
# Sequence (P13945 whole entry, looked up): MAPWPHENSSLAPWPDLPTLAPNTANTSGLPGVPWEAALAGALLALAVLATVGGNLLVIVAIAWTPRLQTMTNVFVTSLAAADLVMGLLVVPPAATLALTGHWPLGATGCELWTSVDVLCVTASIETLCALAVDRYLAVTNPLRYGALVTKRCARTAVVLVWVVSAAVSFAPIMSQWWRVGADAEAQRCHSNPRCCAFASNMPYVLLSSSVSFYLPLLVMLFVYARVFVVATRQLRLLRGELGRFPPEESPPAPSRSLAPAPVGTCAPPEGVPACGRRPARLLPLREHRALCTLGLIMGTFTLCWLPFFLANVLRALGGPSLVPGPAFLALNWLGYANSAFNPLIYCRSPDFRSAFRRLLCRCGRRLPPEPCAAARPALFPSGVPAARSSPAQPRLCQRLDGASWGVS
# method description: Intrinsic activity at recombinant human beta3 adrenergic receptor expressed in CHO cells assessed as accumulation of cyclic AMP after 30 mins relative to isoproterenol
# Assay type: cell-based
Label rule, in plain words: Intrinsic activity of 90% and up is class 1, under 90% is class 0.

mol smiles: Cc1n[nH]c2cc(OCCNC[C@H](O)c3cccc(NS(=O)(=O)C4CC4)c3)ccc12
discrete label: class 0
//
mol smiles: Cc1n[nH]c2cc(OCCNC[C@H](O)c3cccc(NS(=O)(=O)C4CCCC4)c3)ccc12
discrete label: class 0
//
mol smiles: CCCS(=O)(=O)Nc1cccc([C@@H](O)CNCCOc2ccc3c(C)n[nH]c3c2)c1
discrete label: class 0
//
mol smiles: Cc1n[nH]c2cc(OCCNC[C@H](O)c3cccc(NS(=O)(=O)C4CCC4)c3)ccc12
discrete label: class 1
//
mol smiles: Cc1n[nH]c2cc(OCCNC[C@H](O)c3cccc(NS(=O)(=O)c4ccccc4)c3)ccc12
discrete label: class 0

====

# method description: Intrinsic clearance in human liver microsomes at 1 uM in presence of NADPH by LC-MS/MS analysis
# Format: ADME, microsome
# test settings: read-out: CLH
Label rule, in plain words: CLint scaled at 1 µM of 200 mL/min/kg and up is y, under 200 mL/min/kg is n.

mol smiles: Cc1n[nH]c2cc(OCCNC[C@H](O)c3cccc(NS(=O)(=O)C4CCC4)c3)ccc12
discrete label: n
--
mol smiles: CS(=O)(=O)Nc1cccc([C@@H](O)CNCCOc2ccc3c(C4CCC4)n[nH]c3c2)c1
discrete label: y
--
mol smiles: Cc1n[nH]c2cc(OCCNC[C@H](O)c3cccc(NS(=O)(=O)c4ccccc4)c3)ccc12
discrete label: y
--
mol smiles: CCc1n[nH]c2cc(OCCNC[C@H](O)c3cccc(NS(C)(=O)=O)c3)ccc12
discrete label: n
--
mol smiles: Cc1n[nH]c2cc(OCCNC[C@H](O)c3cccc(NS(C)(=O)=O)c3)ccc12
discrete label: n
--
mol smiles: CC(C)c1n[nH]c2cc(OCCNC[C@H](O)c3cccc(NS(C)(=O)=O)c3)ccc12
discrete label: n
